Tested on: A2780
PROTOCOL_NOTES: Cytotoxicity against human A2780 cells
Type: functional
RUN_PARAMETERS: read-out: ID50 (the source's name)
OUTCOME_MEASURE: IC50

Measured IC50 of COC1=C(Br)[C@H](O)[C@@]2(C=C1Br)CC(C(=O)NCCCOc1c(Br)cc(CCNC(=O)CCCCCCCCCCCC(C)C)cc1Br)=NO2 [ARAPLYSILLIN 2] : 14.8 mg/L

Measured IC50 of COc1ccc(C/C(=N\O)C(=O)NCCc2cc(Br)c(OCCC[N+](C)(C)[O-])c(Br)c2)cc1Br [PURPUREAMINE J] : 6.77 mg/L

Measured IC50 of COC1=C(Br)[C@@H](O)[C@]2(C=C1Br)CC(C(=O)NCCCOc1c(Br)cc(CCN)cc1Br)=NO2 [ARAPLYSILLIN 1] : 18.6 mg/L

Measured IC50 of CNCCCOc1c(Br)cc(CCNC(=O)/C(Cc2ccc(OC)c(Br)c2)=N/O)cc1Br [PURPUREAMINE I] : 1.7 mg/L

Measured IC50 of COC1=C(Br)[C@H](O)[C@@]2(C=C1Br)CC(C(=O)NCCCc1cnc(N)[nH]1)=NO2 [AEROPHOBIN 2] : > 10 mg/L

Measured IC50 of COc1ccc(C/C(=N/O)C(=O)NCCc2cc(Br)c(OCCCN(C)C)c(Br)c2)cc1Br [APLYSAMINE 2] : 2.83 mg/L

Measured IC50 of "CNCCCOc1c(Br)cc(CCNC(=O)C2=NO[C@]3(C=C(Br)C(OC)=C(Br)[C@@H]3O)C2)cc1Br" : 7.44 mg/L

Measured IC50 of COC1=C(Br)[C@@H](O)[C@]2(C=C1Br)CC(C(=O)NCCc1cnc(N)[nH]1)=NO2 [PUREALIDIN J] : > 10 mg/L

Measured IC50 of COC1=C(Br)[C@@H](O)[C@]2(C=C1Br)CC(C(=O)NCCc1cnc[nH]1)=NO2 [AEROPHOBIN 1] : 21.5 mg/L
